Listing of recorded EC50 (read off the curve), pSTAT5 MFI in NK cells of hPBMC by entry.
- system: T1, human intermediate-affinity IL-2 receptor complex, IL-2 CD122/CD132 (β/γ), on cells (human, UniProt P14784 27-551; P31785 23-369)
- T1 sequence (looked up) 1: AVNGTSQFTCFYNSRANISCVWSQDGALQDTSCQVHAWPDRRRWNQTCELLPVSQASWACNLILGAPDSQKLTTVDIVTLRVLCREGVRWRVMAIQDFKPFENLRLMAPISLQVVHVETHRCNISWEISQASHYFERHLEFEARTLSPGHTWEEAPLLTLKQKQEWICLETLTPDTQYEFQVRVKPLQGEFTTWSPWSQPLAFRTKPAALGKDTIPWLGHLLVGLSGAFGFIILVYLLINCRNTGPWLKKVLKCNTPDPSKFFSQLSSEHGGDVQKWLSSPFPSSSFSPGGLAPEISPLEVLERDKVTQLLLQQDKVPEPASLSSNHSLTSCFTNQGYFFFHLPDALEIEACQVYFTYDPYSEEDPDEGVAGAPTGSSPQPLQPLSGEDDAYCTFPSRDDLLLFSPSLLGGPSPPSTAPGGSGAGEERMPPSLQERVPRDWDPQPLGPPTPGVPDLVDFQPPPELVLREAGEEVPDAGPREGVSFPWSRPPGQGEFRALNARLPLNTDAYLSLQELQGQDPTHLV
- T1 sequence (looked up) 2: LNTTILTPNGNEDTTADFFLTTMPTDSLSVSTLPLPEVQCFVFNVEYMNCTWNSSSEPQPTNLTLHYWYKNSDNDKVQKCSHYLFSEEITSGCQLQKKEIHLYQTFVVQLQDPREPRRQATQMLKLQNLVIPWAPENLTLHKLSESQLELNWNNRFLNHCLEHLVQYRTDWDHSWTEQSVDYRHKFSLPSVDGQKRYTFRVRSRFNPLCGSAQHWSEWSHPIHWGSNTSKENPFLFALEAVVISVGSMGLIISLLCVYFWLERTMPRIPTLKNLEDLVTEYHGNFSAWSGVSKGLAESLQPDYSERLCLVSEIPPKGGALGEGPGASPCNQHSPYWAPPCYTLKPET
- assayOverview: cell-based or functional assay
resultType: EC50 (read off the curve), pSTAT5 MFI in NK cells of hPBMC

binder: Fc-IL2-R38N:L40T-K43N:Y45T (Fc fusion) GGGGSGGGGSAPTSSSTKKTQLQLEHLLLDLQMILNGINNYKNPKLTNMTTFNFTMPKKATELKHLQCLEEELKPLEEVLNLAQSKNFHLRPRDLISNINVIVLELKGSETTFMCEYADETATIVEFLNRWITFCQSIISTLT
val: ~8 nM
//
binder: Fc-IL2-R38N:L40T-E62N:K64T (Fc fusion) GGGGSGGGGSAPTSSSTKKTQLQLEHLLLDLQMILNGINNYKNPKLTNMTTFKFYMPKKATELKHLQCLEENLTPLEEVLNLAQSKNFHLRPRDLISNINVIVLELKGSETTFMCEYADETATIVEFLNRWITFCQSIISTLT
val: ~6 nM
//
binder: Fc-IL2-R38N:L40T-L72N:Q74T (Fc fusion) GGGGSGGGGSAPTSSSTKKTQLQLEHLLLDLQMILNGINNYKNPKLTNMTTFKFYMPKKATELKHLQCLEEELKPLEEVLNNATSKNFHLRPRDLISNINVIVLELKGSETTFMCEYADETATIVEFLNRWITFCQSIISTLT
val: ~6 nM
//
binder: Fc-IL2v (Fc fusion) GGGGSGGGGSAPASSSTKKTQLQLEHLLLDLQMILNGINNYKNPKLTRMLTAKFAMPKKATELKHLQCLEEELKPLEEVLNGAQSKNFHLRPRDLISNINVIVLELKGSETTFMCEYADETATIVEFLNRWITFAQSIISTLT
val: ~3 nM
